Each recorded value in this set is attributed to patent US5232917A.

Target: progesterone receptor (Bos taurus)
Construct: from tissue; host or cells: bovine uterus cytosol
Sequence (F1N712 1-914): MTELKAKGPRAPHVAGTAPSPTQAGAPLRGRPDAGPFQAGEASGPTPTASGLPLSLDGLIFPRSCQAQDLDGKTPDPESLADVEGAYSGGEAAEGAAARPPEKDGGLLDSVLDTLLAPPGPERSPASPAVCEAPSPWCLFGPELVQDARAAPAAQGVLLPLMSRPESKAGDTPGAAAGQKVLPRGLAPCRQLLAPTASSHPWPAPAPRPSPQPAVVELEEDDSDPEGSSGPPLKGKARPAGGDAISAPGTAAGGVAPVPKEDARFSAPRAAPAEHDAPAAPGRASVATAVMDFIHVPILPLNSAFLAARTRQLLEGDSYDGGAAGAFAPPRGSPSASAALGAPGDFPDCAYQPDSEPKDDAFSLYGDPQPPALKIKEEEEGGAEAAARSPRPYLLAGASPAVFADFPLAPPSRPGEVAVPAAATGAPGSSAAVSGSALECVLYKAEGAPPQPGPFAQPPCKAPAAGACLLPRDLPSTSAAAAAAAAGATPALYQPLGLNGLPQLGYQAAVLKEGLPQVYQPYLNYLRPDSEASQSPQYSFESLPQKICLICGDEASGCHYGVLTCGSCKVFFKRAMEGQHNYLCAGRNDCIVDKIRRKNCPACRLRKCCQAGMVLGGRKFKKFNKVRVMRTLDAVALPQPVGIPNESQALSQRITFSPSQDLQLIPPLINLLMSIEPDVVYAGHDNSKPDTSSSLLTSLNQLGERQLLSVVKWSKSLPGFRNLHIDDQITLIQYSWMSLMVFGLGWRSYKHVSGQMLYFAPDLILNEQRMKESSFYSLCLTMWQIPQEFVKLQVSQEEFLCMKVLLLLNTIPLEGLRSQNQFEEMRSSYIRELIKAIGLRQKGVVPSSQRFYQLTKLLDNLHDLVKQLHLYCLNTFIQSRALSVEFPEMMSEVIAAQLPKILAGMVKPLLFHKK
Experiment: Inhibition of 3H-progesterone binding to bovine uteral progesterone receptors
Conditions: read-out: % of inhibition of 3H-progesterone binding, B, competitor 10^-5 M; 0.25 nM 3H-progesterone
# inhibition at 10 µM listing for each entry below

- compound: "C[C@]12CC[C@@H](O)C[C@@H]1CC[C@@H]1[C@@H]2CC[C@]2(C)[C@@H](C(=O)CO)CC[C@@H]12 [Example 5α-THDOC, 3α,21-dihydroxy-5α-pregnan-20-one]"
  unit: "%"
  inhibition at 10 µM: 28
- compound: "C[C@]12CC[C@@H](O)C[C@H]1CC[C@@H]1[C@@H]2CC[C@]2(C)[C@@H](C(=O)CO)CC[C@@H]12 [5β-PREGNAN-3α,21-DIOL-20-ONE]"
  unit: "%"
  inhibition at 10 µM: 10
- compound: "CC(=O)[C@H]1CC[C@H]2[C@@H]3CC[C@H]4C[C@H](O)CC[C@]4(C)[C@H]3CC[C@]12C [Example 3α-OH-DHP, 3α-hydroxy-5α-pregnan-20-one]"
  unit: "%"
  inhibition at 10 µM: 40
- compound: "C[C@H](O)[C@H]1CC[C@H]2[C@@H]3CC[C@H]4C[C@H](O)CC[C@]4(C)[C@H]3CC[C@]12C [5α-pregnanediol, 5α-pregnan-3α,20α-diol]"
  unit: "%"
  inhibition at 10 µM: 3
- compound: "C[C@H](O)[C@H]1CC[C@H]2[C@@H]3CC[C@@H]4C[C@H](O)CC[C@]4(C)[C@H]3CC[C@]12C [5β-pregnan-3α,20α-diol]"
  unit: "%"
  inhibition at 10 µM: 1
- compound: "CC(C)(O)[C@H]1CC[C@H]2[C@@H]3CC[C@H]4C[C@](C)(O)CC[C@]4(C)[C@H]3CC[C@]12C"
  unit: "%"
  inhibition at 10 µM: 0
- compound: "CC(=O)[C@H]1CC[C@H]2[C@@H]3CC[C@H]4C[C@](C)(O)CC[C@]4(C)[C@H]3CC[C@]12C [3α-HYDROXY-3β-METHYL-5α-PREGNAN-20-ONE, 3α-hydroxy-3β-methyl-5α-pregnan-20-one]"
  unit: "%"
  inhibition at 10 µM: 5
- compound: "CC(=O)[C@H]1CC[C@H]2[C@@H]3CC[C@@H]4C[C@H](O)CC[C@]4(C)[C@H]3CC[C@]12C [5β-pregnan-3α,ol-20-one]"
  unit: "%"
  inhibition at 10 µM: 13
